Molecular target: bovine cardiac myofibrils (full-length cardiac myosin ATPase in the native sarcomere) (Bos taurus (Bovine))
Sequence (Q9BE39 whole entry): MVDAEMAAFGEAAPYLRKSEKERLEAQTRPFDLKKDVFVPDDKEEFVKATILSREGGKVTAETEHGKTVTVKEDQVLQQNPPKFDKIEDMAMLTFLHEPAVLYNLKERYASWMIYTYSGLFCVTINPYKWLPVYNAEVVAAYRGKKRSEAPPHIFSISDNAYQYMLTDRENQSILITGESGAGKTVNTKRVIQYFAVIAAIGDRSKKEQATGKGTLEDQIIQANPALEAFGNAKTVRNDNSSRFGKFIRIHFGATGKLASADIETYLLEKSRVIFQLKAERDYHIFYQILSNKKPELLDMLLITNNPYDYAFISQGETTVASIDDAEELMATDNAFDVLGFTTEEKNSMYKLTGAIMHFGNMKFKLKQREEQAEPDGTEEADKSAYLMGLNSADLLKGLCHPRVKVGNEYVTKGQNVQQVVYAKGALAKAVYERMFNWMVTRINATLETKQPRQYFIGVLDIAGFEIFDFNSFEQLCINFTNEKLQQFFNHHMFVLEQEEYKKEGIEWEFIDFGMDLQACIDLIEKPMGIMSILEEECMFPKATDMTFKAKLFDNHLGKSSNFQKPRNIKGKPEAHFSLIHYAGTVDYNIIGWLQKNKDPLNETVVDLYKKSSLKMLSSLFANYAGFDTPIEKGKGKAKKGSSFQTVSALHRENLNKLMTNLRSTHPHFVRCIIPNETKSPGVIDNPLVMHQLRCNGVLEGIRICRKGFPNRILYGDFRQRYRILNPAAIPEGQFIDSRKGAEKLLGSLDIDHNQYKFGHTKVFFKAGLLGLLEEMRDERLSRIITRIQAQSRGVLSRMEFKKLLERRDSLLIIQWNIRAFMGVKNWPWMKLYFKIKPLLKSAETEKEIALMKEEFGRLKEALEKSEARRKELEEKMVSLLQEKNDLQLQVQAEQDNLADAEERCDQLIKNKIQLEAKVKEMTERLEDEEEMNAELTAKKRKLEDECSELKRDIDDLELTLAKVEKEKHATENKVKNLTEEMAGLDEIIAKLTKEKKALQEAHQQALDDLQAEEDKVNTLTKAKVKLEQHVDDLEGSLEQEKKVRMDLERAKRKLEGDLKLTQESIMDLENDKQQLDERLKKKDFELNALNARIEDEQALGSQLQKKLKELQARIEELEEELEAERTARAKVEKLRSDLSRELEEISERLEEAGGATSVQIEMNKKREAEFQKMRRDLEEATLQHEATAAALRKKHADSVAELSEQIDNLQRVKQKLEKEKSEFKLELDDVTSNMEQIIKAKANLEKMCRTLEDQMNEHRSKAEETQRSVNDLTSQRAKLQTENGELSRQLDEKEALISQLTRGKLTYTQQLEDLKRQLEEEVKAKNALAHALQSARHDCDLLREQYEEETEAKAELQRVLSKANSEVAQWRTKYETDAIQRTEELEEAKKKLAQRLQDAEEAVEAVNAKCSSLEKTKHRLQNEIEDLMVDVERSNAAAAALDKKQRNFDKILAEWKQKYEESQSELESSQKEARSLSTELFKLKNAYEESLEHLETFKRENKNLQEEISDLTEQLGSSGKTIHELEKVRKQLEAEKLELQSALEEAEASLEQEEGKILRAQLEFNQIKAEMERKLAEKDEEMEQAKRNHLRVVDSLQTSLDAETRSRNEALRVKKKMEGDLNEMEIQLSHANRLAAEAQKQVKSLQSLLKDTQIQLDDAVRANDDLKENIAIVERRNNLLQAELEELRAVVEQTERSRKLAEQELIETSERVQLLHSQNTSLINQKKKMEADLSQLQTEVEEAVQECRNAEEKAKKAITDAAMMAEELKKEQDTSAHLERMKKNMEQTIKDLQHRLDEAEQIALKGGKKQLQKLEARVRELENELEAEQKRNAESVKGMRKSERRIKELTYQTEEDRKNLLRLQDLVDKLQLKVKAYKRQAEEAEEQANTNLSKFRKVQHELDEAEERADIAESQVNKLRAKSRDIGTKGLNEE
Sequence (P85100 whole entry partner): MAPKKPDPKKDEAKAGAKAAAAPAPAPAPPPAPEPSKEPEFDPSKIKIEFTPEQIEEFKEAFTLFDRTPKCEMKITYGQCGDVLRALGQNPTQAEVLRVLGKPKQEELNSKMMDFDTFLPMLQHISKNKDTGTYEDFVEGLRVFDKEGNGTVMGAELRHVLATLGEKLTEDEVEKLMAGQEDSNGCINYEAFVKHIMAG
Sequence (Q3SZE5 whole entry partner): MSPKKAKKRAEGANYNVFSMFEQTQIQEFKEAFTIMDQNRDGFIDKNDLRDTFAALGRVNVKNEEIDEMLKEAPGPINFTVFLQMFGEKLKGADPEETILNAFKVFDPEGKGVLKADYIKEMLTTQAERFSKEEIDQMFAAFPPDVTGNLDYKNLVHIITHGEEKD
Assay: Skinned bovine cardiac myofibril ATPase assay (PK/LDH-coupled)
Assay type: biochemical
Settings: Ca2+ activating to 75% of maximal rate, concentration giving 15% inhibition
ENDPOINT NAME: CDMF75 IC15 (µM)
Give bare numbers, in µM.

In [3]: df
Out[3]:
                                   molecule  endpoint_name  recorded_value
0  [2H]C([2H])([2H])c1noc(-c2ccc3c(c2)CC[C@H]3NC(=O)c2oncc2C)n1 [Compound 275]    CDMF75 IC15             0.8
1  Cc1noc(-c2ccc3c(c2)CC[C@H]3NC(=O)c2nnc(C)o2)n1 [Compound 703]    CDMF75 IC15             1.7
2  CCc1cc(-c2ccc3c(c2)OC[C@H]3NC(=O)c2ocnc2C)no1 [Compound 424]    CDMF75 IC15             0.2

Please state CDMF75 IC15 for every molecule in the list that follows.
1. Cc1nc(-c2ccc3c(c2)CC[C@H]3NC(=O)c2c[nH]nc2C)no1 [Compound 400]
2. CCC(=O)N[C@@H]1CCc2cc(-c3noc(C(F)F)n3)ccc21 [Compound 283]
3. C=Cc1cc(C(=O)N[C@@H]2CCc3cc(-c4noc(CC)n4)ccc32)ccn1 [Compound 655]
4. C[C@@H](O)c1nc(-c2ccc3c(c2)CC[C@H]3NC(=O)c2cnn(C)c2)no1 [Compound 550]
5. CC(CO)c1nc(-c2ccc3c(c2)CC[C@H]3NC(=O)c2nnn(C)n2)no1 (some centres unmarked) [Compound 518]

Solution:
1. 0.8
2. 9.6
3. 0.6
4. 13.1
5. 27.8
